Biological target: ACKR2 (Homo sapiens)
Construct: expressed in transfected cells; host or cells: U87 cells (human glioblastoma)
Sequence (O00590 1-384): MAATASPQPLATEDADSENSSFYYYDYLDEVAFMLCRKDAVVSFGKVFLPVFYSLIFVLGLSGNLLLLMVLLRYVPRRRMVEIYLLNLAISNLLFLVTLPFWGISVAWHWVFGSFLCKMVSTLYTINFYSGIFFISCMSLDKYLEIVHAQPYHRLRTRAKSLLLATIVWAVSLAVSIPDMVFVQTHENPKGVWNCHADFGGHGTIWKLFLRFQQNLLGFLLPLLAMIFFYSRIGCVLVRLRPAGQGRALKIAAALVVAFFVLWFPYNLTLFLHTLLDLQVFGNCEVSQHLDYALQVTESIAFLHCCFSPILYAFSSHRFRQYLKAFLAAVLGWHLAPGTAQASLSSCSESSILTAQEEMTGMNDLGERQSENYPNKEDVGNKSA
Experiment: Figure S2a opioid peptide screen on chemokine receptors
Assay type: cell-based
Parameters: dose or concentration left out as unconfirmed
Settings: replicate 3, read-out: ACKR2 activity, ctrl+ = 100
Starred links: 1 amine or outer side, 2 acyl side, 3 side chain; linkers in the order of their positions; H or OH if unused. Non-standard residues stand in square brackets, D forms with d. Residues, ends and D or L forms follow the SMILES beside them. X1 = N[C@@H](Cc1ccccc1)CN(CC(=O)[*:2])[*:1]
quantity-name: activation (%)
Numbers only, in %.

INSERT INTO measurements (compound, experimental_system, quantity_name, meas_value) VALUES
  ('CC(C)C[C@H](NC(=O)[C@H](Cc1ccccc1)NC(=O)CNC(=O)CNC(=O)[C@@H](N)Cc1ccc(O)cc1)C(=O)N[C@@H](CCCN=C(N)N)C(=O)N[C@@H](CCCN=C(N)N)C(=O)N[C@@H](CCC(N)=O)C(=O)N[C@@H](Cc1ccccc1)C(=O)N[C@@H](CCCCN)C(=O)N[C@H](C(=O)N[C@H](C(=O)N[C@H](C(=O)O)[C@@H](C)O)C(C)C)C(C)C', 'ACKR2 (Homo sapiens)', 'activation', -3.73);

// each compound listed below needs its activation
1. CSCC[C@H](NC(=O)[C@H](Cc1ccccc1)NC(=O)CNC(=O)CNC(=O)[C@@H](N)Cc1ccc(O)cc1)C(=O)N[C@@H](CCCNC(=N)N)C(=O)N[C@@H](CCCNC(=N)N)C(=O)N[C@H](C(N)=O)C(C)C
2. C[C@H](NC(=O)CNC(=O)[C@@H](NC(=O)[C@H](Cc1ccccc1)NC(=O)CNC(=O)CNC(=O)[C@@H](N)Cc1ccccc1)[C@@H](C)O)C(=O)N[C@@H](CCCNC(=N)N)C(=O)N[C@@H](CCCCN)C(=O)N[C@@H](CO)C(=O)N[C@@H](C)C(=O)N[C@@H](CCCNC(=N)N)C(=O)N[C@@H](CCCCN)C(N)=O

[-0.924, 10.5]

// each compound listed below needs its activation
1. C[C@H](NC(=O)CNC(=O)[C@@H](NC(=O)[C@H](Cc1ccccc1)NC(=O)CNC(=O)CNC[C@@H](N)Cc1ccccc1)[C@@H](C)O)C(=O)N[C@@H](CCCNC(=N)N)C(=O)N[C@@H](CCCCN)C(=O)N[C@@H](CO)C(=O)N[C@@H](C)C(=O)N[C@@H](CCCNC(=N)N)C(=O)N[C@@H](CCCCN)C(N)=O [FG Nociceptin 1-13] (H-[X1]GFTGARKSARK-NH2)
2. CC[C@H](C)[C@H](NC(=O)[C@H](CCCNC(=N)N)NC(=O)[C@H](CCCNC(=N)N)NC(=O)[C@H](CC(C)C)NC(=O)[C@H](Cc1ccccc1)NC(=O)CNC(=O)CNC(=O)[C@@H](N)Cc1ccc(O)cc1)C(=O)N[C@@H](CCCNC(=N)N)C(=O)N1CCC[C@H]1C(=O)N[C@@H](CCCCN)C(=O)N[C@@H](CC(C)C)C(=O)N[C@@H](CCCCN)C(=O)N[C@@H](Cc1c[nH]c2ccccc12)C(=O)N[C@@H](CC(=O)O)C(=O)N[C@@H](CC(N)=O)C(=O)N[C@@H](CCC(N)=O)C(=O)O

1: 2.35; 2: 2.73
